test system: diabetic mice; assay: Paw thermal response latency (paw response to heat) in STZ Type I diabetes model; type: in vivo, Swiss Webster mice; conditions: Part B (treatment after 7-8 weeks of diabetes)
measuredQuantity: paw thermal hypoalgesia

> print(dat)
                                   compound         measuredquantity  observedresult
1            C=CCNC(=O)c1cccnc1NCc1ccccc1OC  paw thermal hypoalgesia         did not
2  O=C(NCc1nc2ccccn2c1NCC1CCCO1)Oc1ccccc1 (stereo not shown)  paw thermal hypoalgesia         did not
3  O=C(COc1ccccc1)NCc1nc2ccccn2c1NCC1CCCO1 (stereo not shown)  paw thermal hypoalgesia         did not

###

system: diabetic mice; assay: Paw tactile response threshold by manual von Frey filament (tactile allodynia) in STZ Type I diabetes model; format: in vivo, Swiss Webster mice; conditions: Part B (treatment after 7-8 weeks of diabetes)
measuredQuantity: paw tactile allodynia

> print(dat)
                                   compound  observedresult
1  C=CCNC(=O)c1cccnc1NCc1ccccc1OC [NSI-150]         did not
2  O=C(NCc1nc2ccccn2c1NCC1CCCO1)Oc1ccccc1 (stereo not shown) [NSI-182]         did not
3  O=C(COc1ccccc1)NCc1nc2ccccn2c1NCC1CCCO1 (stereo not shown) [NSI-183]         did not
